- assayed target: human S2R (Homo sapiens)
- Construct: performed using Jurkat cell line Clone E6-1 cells with 0.025 μM; endogenous in cells
- Sequence (Q5BJF2 whole entry): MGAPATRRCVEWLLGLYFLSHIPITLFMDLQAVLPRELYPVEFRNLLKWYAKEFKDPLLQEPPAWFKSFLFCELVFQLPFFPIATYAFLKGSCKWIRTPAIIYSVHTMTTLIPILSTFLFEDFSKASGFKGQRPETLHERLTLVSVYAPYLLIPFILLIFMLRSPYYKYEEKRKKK
- assay details: Human S2R radiolabeled binding assay, Jurkat Clone E6-1 cell membranes, [3H] DTG
- conditions: human membranes (Compounds 10-76)
pKi: −log10 of the molar value.

{"columns": ["compound structure string", "assayed target", "measurement qualifier", "pKi"],
 "data": [
  ["Cn1nc(CN2CCCC2)nc1-c1ccc2c(c1)CCCC2", "human S2R (Homo sapiens)", "<", 6.00],
  ["CCn1nc(CN2CCCC2)nc1-c1ccc(C(C)(C)C)cc1", "human S2R (Homo sapiens)", "=", 5.77],
  ["Cn1nc(CN2CCCC2)nc1-c1ccc(C2(C(F)(F)F)CC2)cc1", "human S2R (Homo sapiens)", "<", 6.00],
  ["Cn1nc(CN2CCCC2)nc1-c1cccc(C2(C(F)(F)F)CC2)c1", "human S2R (Homo sapiens)", "<", 6.00],
  ["CC(C)(C)c1ccc(-c2nc(CN3CCCC3)nn2C2CC2)cc1", "human S2R (Homo sapiens)", "=", 6.12]
]}

====

- assayed target: human S2R (Homo sapiens)
- Construct: performed using Jurkat cell line Clone E6-1 cells with 0.025 μM; endogenous in cells
- assay details: Human S2R radiolabeled binding assay, Jurkat Clone E6-1 cell membranes, [3H] DTG
- conditions: human membranes (Compounds 10-76)

{"columns": ["compound structure string", "Ki"],
 "data": [
  ["CC(C)n1nc(CN2CCC3(CC3)C2)nc1-c1ccc(C(C)(C)C)cc1", "0.36 µM"],
  ["Cn1nc(CN2CCCC2)nc1-c1ccc(Cl)c(Cl)c1", "> 1 µM"],
  ["CC(C)n1nc(CN2CCCC2)nc1-c1ccc(C(C)(C)C)cc1", "1.46 µM"],
  ["Cn1nc(CN2CCCC2)nc1-c1ccc2cc(Cl)sc2c1", "> 1 µM"],
  ["Cc1cc(-c2nc(CN3CCCC3)nn2C)ccc1C(F)(F)F", "> 1 µM"],
  ["Cn1nc(CN2CCC(C)(C)C2)nc1-c1ccc(C(C)(C)C)cc1", "0.19 µM"]
]}

====

- assayed target: S1R (Cavia porcellus, UniProt Q60492)
- Construct: performed using Guinea pig whole brain according to the protocol previously reported; from tissue; host or cells: guinea pig whole brain membrane preparations
- Sequence (Q60492 whole entry): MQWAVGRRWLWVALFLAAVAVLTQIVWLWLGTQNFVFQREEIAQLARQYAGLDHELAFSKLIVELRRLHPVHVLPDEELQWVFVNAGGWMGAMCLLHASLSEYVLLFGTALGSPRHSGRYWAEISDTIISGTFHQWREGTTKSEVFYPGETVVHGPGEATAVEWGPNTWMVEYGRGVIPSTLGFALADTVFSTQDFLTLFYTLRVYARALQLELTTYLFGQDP
- assay details: S1R radiolabeled binding assay, guinea pig whole brain, [3H]-pentazocine
- conditions: guinea pig brain membranes (Compounds 1-9); read-out: S1R Ki
Please respond with YES when measured Ki is strictly beneath 2 nM, and with NO in all other cases.

{"columns": ["compound structure string", "category label"],
 "data": [
  ["Cn1nc(CN2CCCC2)nc1-c1ccc(C(C)(C)C)cc1", "NO"],
  ["CN(Cc1nc(-c2ccc(C(C)(C)C)cc2)n(C)n1)CC1CC1", "YES"],
  ["Cn1nc(CN2CCN(Cc3ccccc3)CC2)nc1-c1ccc(C(C)(C)C)cc1", "NO"],
  ["CN1CCN(Cc2nc(-c3ccc(C(C)(C)C)cc3)n(C)n2)CC1", "NO"],
  ["Cn1nc(CN2CCOCC2)nc1-c1ccc(C(C)(C)C)cc1", "NO"],
  ["Cn1nc(CN2CCCCC2)nc1-c1ccc(C(C)(C)C)cc1", "NO"]
]}

====

- assayed target: S1R (Cavia porcellus)
- Construct: performed using Guinea pig whole brain according to the protocol previously reported; from tissue; host or cells: guinea pig whole brain membrane preparations
- assay details: S1R radiolabeled binding assay, guinea pig whole brain, [3H]-pentazocine
- Description: Following 1 h incubation at 25° C., the binding assay was terminated by addition of cold buffer. The mixture was then filtered through Whatman GF/B filters and washed with cold buffer. Radioactivity was identified using the liquid scintillation counter. Receptor binding data were analyzed by nonlinear regression of saturation and competition curves using the GraphPad Prism 7.0 software (GraphPad Software, La Jolla, Calif.). Radiolabeled binding assays were conducted using two different species.
// Ki lookup, one value per entry
readout kind: Ki (nM)

{"columns": ["compound structure string", "endpoint result"],
 "data": [
  ["Cn1nc(CN2CCN(c3ccccc3)CC2)nc1-c1ccc(C(C)(C)C)cc1", 14.3],
  ["Cn1nc(CN2CCN(CCc3ccccc3)CC2)nc1-c1ccc(C(C)(C)C)cc1", 10.2]
]}

Where do these numbers come from? They come from patent US20220363649A1.
